Data origin, for the record: patent US8664257B2

// values below are reported pIC50
Target: Recombinant human cathepsin A (Homo sapiens, UniProt P10619)
Construct: Recombinant human cathepsin A (residues 29-480, with a C-terminal 10-His tag); 10-His (C); purchased R&D Systems 1049-SE
Sequence (P10619 29-312 limits assumed): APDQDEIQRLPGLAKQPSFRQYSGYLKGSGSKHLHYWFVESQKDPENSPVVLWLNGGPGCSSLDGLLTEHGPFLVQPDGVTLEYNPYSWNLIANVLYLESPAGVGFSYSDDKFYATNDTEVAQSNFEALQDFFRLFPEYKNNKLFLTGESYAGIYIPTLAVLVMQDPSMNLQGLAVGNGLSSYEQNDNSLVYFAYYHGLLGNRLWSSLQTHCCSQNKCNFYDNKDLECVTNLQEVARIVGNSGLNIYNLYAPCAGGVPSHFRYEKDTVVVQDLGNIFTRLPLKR
Sequence (P10619 327-480 limits assumed): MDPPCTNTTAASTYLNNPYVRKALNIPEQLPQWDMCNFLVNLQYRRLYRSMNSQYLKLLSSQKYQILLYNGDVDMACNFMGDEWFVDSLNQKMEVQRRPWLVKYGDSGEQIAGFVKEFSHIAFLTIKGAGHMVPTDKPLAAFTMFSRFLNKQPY
Assay: Cathepsin A inhibitory activity
Format: biochemical
Details: read-out: Activity (2): Cathepsin A inhibitory activity, IC50 class
pIC50: −log10 of the molar value.

Below, each entry is followed by its recorded pIC50 result.
                                   compound                          target_or_system  assay_metric  observed_result
0  Cc1ccc(C)c(-n2nc(C(=O)NC(CC(=O)O)c3cccc(F)c3)cc2O)c1 (stereo not shown) [Example 49]  Recombinant human cathepsin A (Homo sapiens, UniProt P10619)         pIC50     4.52 to 6.00
1  COc1ccccc1[C@H](CC(=O)O)NC(=O)c1cc(O)n(-c2ccccc2)n1 [Example 100]  Recombinant human cathepsin A (Homo sapiens, UniProt P10619)         pIC50     6.00 to 7.00
2  Cc1ccccc1[C@H](CC(=O)O)NC(=O)c1cc(OC[C@@](C)(O)C(C)C)n(-c2ccccc2F)n1 (single isomer, unassigned) [Example 833]  Recombinant human cathepsin A (Homo sapiens, UniProt P10619)         pIC50     4.52 to 6.00
3  Cc1ccc(C)c(C(CC(=O)O)NC(=O)c2cc(O)n(-c3ccccc3)n2)c1 (stereo not shown) [Example 378]  Recombinant human cathepsin A (Homo sapiens, UniProt P10619)         pIC50     6.00 to 7.00
4  Cc1cccc(C(CC(=O)O)NC(=O)c2cc(O)n(-c3ccccc3)n2)c1 (stereo not shown) [Example 65]  Recombinant human cathepsin A (Homo sapiens, UniProt P10619)         pIC50     6.00 to 7.00
5  COc1ccc(C(CC(=O)O)NC(=O)c2cc(O)n(-c3ccccc3)n2)cc1OC (stereo not shown) [Example 11]  Recombinant human cathepsin A (Homo sapiens, UniProt P10619)         pIC50     4.52 to 6.00
6  COc1ccc([C@H](CC(=O)O)NC(=O)c2cc(O)n(-c3ccc(F)cc3F)n2)cc1 [Example 382]  Recombinant human cathepsin A (Homo sapiens, UniProt P10619)         pIC50     6.00 to 7.00
7  O=C(O)CC(NC(=O)c1cc(O)n(-c2ccccc2)n1)c1ccc(-c2ccccc2)cc1 (stereo not shown) [Example 69]  Recombinant human cathepsin A (Homo sapiens, UniProt P10619)         pIC50     6.00 to 7.00
8  CC(C)[C@](C)(O)COc1cc(C(=O)NC(CC(=O)O)Cc2ccccc2)nn1-c1ccccc1F (stereo partly shown) [Example 826]  Recombinant human cathepsin A (Homo sapiens, UniProt P10619)         pIC50     6.00 to 7.00
9  O=C(O)CC(NC(=O)c1cc(O)n(-c2ccc(F)cc2)n1)c1cccc(Cl)c1 (stereo not shown) [Example 338]  Recombinant human cathepsin A (Homo sapiens, UniProt P10619)         pIC50     6.00 to 7.00

pIC50 reported for this compound Cc1ccc(C)c(-n2nc(C(=O)NC(CC(=O)O)C3CC3)cc2O)c1 (stereo not shown) [Example 36] : 4.52 to 6.00

pIC50 reported for this compound CCc1ccc(C(CC(=O)O)NC(=O)c2cc(O)n(-c3ccccc3F)n2)cc1 (stereo not shown) [Example 134] : 6.00 to 7.00

pIC50 reported for this compound COc1ccc(C(CC(=O)O)NC(=O)c2cc(O)n(-c3ccc(F)cc3)n2)c(F)c1 (stereo not shown) [Example 90] : 4.52 to 6.00

pIC50 reported for this compound O=C(O)C[C@H](NC(=O)c1cc(O)n(-c2ccccc2F)n1)c1ccccc1F [Example 118] : 6.00 to 7.00

pIC50 reported for this compound O=C(O)CC(NC(=O)c1cc(O)n(-c2ccccc2)n1)c1cc(F)cc(F)c1 (stereo not shown) [Example 70] : 4.52 to 6.00

pIC50 reported for this compound O=C(O)C[C@H](NC(=O)c1cc(O)n(-c2ccc(F)cc2)n1)c1cccc(C(F)(F)F)c1 [Example 355] : 6.00 to 7.00

pIC50 reported for this compound COc1ccccc1[C@@H](NC(=O)c1cc(O)n(-c2ccc(Cl)cc2)n1)[C@@H](O)C(=O)O [Example 282] : 4.52 to 6.00

###

Target: Recombinant human cathepsin A (Homo sapiens, UniProt P10619)
Construct: Recombinant human cathepsin A (residues 29-480, with a C-terminal 10-His tag); 10-His (C); purchased R&D Systems 1049-SE
Assay: Cathepsin A inhibitory activity
Assay type: biochemical
Details: read-out: Activity (2): Cathepsin A inhibitory activity, IC50 class
Description: a) Cathepsin A Inhibitory Activity Recombinant human cathepsin A (residues 29-480, with a C-terminal 10-His tag; R&D Systems, #1049-SE) was proteolytically activated with recombinant human cathepsin L (R&D Systems, #952-CY). […] Uncleaved substrate and product were then separated by a microfluidic capillary electrophoresis on a LabChip® 3000 Drug Discovery System (12-Sipper-Chip; Caliper Life Sciences) and quantified by determination of the respective peak areas. […]
pIC50: −log10 of the molar value.
assay-metric: pIC50

Below, each entry is followed by its recorded pIC50 result.
>>> print(df.to_string())
                                   molecule  observed_result
0  O=C(O)C[C@H](NC(=O)c1cc(O)n(-c2ccc(F)cc2F)n1)c1c(F)cccc1F     6.00 to 7.00
1  CC(C)[C@](C)(O)COc1cc(C(=O)N[C@H](CC(=O)O)Cc2ccc(C#N)cc2)nn1-c1ccccc1F     4.52 to 6.00
2  CC(C)C[C@@H](CC(=O)O)NC(=O)c1cc(OC[C@@](C)(O)C(C)C)n(-c2ccccc2F)n1     4.52 to 6.00
3  Cc1ccc(C)c(-n2nc(C(=O)NC(CC(=O)O)c3ccc(Cl)c(Cl)c3)cc2O)c1 (stereo not drawn)     4.52 to 6.00

Considering Cc1ccc(C)c(-n2nc(C(=O)NC(CC(=O)O)c3ccc(Cl)cc3)cc2O)c1 (stereo not drawn) , its pIC50 with Recombinant human cathepsin A (Homo sapiens, UniProt P10619) was recorded as 4.52 to 6.00

Considering COc1ccc(Cl)cc1C(CC(=O)O)NC(=O)c1cc(O)n(-c2ccc(Cl)cc2)n1 (stereo not drawn) , its pIC50 with Recombinant human cathepsin A (Homo sapiens, UniProt P10619) was recorded as 4.52 to 6.00

###

// values below are reported IC50
Molecular target: Recombinant human cathepsin A (Homo sapiens, UniProt P10619)
Construct: Recombinant human cathepsin A (residues 29-480, with a C-terminal 10-His tag); 10-His (C); purchased R&D Systems 1049-SE
Sequence (P10619 29-312 limits assumed): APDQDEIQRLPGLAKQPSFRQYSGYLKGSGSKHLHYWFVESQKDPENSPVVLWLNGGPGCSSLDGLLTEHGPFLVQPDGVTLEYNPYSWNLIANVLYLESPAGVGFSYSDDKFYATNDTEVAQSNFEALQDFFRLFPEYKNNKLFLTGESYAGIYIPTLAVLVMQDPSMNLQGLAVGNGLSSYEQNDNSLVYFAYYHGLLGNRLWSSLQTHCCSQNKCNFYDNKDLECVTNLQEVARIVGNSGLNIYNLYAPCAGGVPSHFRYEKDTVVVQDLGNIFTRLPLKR
Sequence (P10619 327-480 limits assumed): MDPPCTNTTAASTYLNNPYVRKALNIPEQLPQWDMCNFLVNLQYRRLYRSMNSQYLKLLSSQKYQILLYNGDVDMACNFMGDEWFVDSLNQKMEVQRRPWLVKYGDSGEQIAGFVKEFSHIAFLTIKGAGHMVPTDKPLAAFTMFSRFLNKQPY
Assay: Cathepsin A inhibitory activity
Assay type: biochemical
Conditions: read-out: Activity (2): Cathepsin A inhibitory activity (IC50 class)
Source text: a) Cathepsin A Inhibitory Activity Recombinant human cathepsin A (residues 29-480, with a C-terminal 10-His tag; R&D Systems, #1049-SE) was proteolytically activated with recombinant human cathepsin L (R&D Systems, #952-CY). […] Uncleaved substrate and product were then separated by a microfluidic capillary electrophoresis on a LabChip® 3000 Drug Discovery System (12-Sipper-Chip; Caliper Life Sciences) and quantified by determination of the respective peak areas. […]

Below, each entry is followed by its recorded IC50 result.
                                   molecule                          target_or_system  assay_metric  observed_result
0  Cc1ccccc1[C@H](CC(=O)O)NC(=O)c1cc(OC(=O)N2CCCC2)n(-c2ccccc2F)n1 [Example 613]  Recombinant human cathepsin A (Homo sapiens, UniProt P10619)          IC50         < 100 nM
1  Cc1ccccc1[C@H](CC(=O)O)NC(=O)c1cc(OCC(O)C(C)(C)C)n(-c2ccccc2F)n1 (some centres unmarked) [Example 744]  Recombinant human cathepsin A (Homo sapiens, UniProt P10619)          IC50         < 100 nM
2  Cc1ccc([C@H](CC(=O)O)NC(=O)c2cc(OC[C@@](C)(O)C(C)(C)C)n(-c3ccccc3F)n2)cc1 [Example 781]  Recombinant human cathepsin A (Homo sapiens, UniProt P10619)          IC50         < 100 nM
3  O=C(O)CC(NC(=O)c1cc(O)n(Cc2ccccc2)n1)c1ccc(-c2ccc(F)cc2)cc1 (centres unmarked) [Example 538]  Recombinant human cathepsin A (Homo sapiens, UniProt P10619)          IC50   100 to 1000 nM
4  Cc1ccccc1[C@H](CC(=O)O)NC(=O)c1cc(O)n(-c2cccc(S(N)(=O)=O)c2)n1 [Example 601]  Recombinant human cathepsin A (Homo sapiens, UniProt P10619)          IC50   100 to 1000 nM

IC50 reported for this molecule CC(C)[C@@](C)(O)COc1cc(C(=O)N[C@@H](CC(=O)O)c2cccc(Cl)c2)nn1-c1ccccc1F [Example 767] : < 100 nM

IC50 reported for this molecule O=C(O)CC(NC(=O)c1cc(O)n(-c2ccccc2F)n1)c1ccc(-n2cccn2)cc1 (centres unmarked) [Example 582] : 100 to 1000 nM

IC50 reported for this molecule Cc1ccccc1[C@H](CC(=O)O)NC(=O)c1cc(OC[C@H](O)C2CC2)n(-c2ccccc2F)n1 (single isomer, unassigned) [Example 760] : < 100 nM
